Where do the numbers come from? From PubChem BioAssay.

assay-protocol: growth inhibitors of H69AR lung tumor, primary screen, human, duplicate replicates (AID 580);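 note: 100% = mean luminescence of untreated wells and 0% = no signal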
applied-conditions: H69AR lung tumor cells viability, ATP luminescence, 72 h; at 10 µM
Calls of active or inactive are those of the source.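 Rule for the calls: active = viability at or under a set limit in both replicates, limit being median viability minus 3 SD (cut at about 48% in these data, passing the limit was not always enough); inconclusive = at or under the limit in just one replicate; inactive = at or above the limit in both replicates.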
I would appreciate it if you answered using one of these outcomes: true (1) = active, false (0) = inactive

>  <molecule>
CC(=O)c1coc2ccc(OCC(=O)O)cc12

>  <label-value>
false (0)

$$$$
>  <molecule>
COc1cc2c(cc1OC)C(C)N(C(=O)c1cc3n(n1)C(C(F)(F)F)CC(c1ccco1)N3)CC2 (stereo not given)

>  <label-value>
false (0)

$$$$
>  <molecule>
COc1ccc(Br)cc1CNC(=O)C1CCCN(S(C)(=O)=O)C1 (stereo not given)

>  <label-value>
false (0)

$$$$
>  <molecule>
O=C1C(c2ccncc2)=C(O)c2ccccc21

>  <label-value>
false (0)

$$$$
>  <molecule>
Cc1cc(C)c2c(N)c(C(=O)N3CCN(c4ncccn4)CC3)sc2n1

>  <label-value>
false (0)

$$$$
>  <molecule>
CCOC(=O)c1sc2ncn(/N=C/N(C)C)c(=O)c2c1C

>  <label-value>
false (0)

$$$$

Exercise: Called result for CCN1CCN(C(=O)c2ccc3c(=O)n(CCC4=CCCCC4)c(=O)[nH]c3c2)CC1
Key: false (0)

Exercise: CCn1nnc(-c2ccccc2NC(=O)c2ccc(-n3cnnn3)cc2)n1 ?
Key: false (0)

----------
assay-protocol: 384-well plate pilot, post-Golgi transport modulator project, inhibition of yeast transport mutant growth (AID 636)
applied-conditions: absorbance 615 nm, about 18 h, stronger effect = higher value
// inhibition lookup, one value per entry
The answer is to be given in %; state only the numeric part.

Example cases with answers are listed next.
>  <molecule>
CCCN1C=CC(=C2C(=O)c3ccccc3C2=O)C=C1

>  <inhibition, %>
-1.92

$$$$
>  <molecule>
CN(CC(=O)N1CCN(c2ccc(F)cc2)CC1)S(=O)(=O)c1ccc(F)cc1

>  <inhibition, %>
-6.18

$$$$
>  <molecule>
C=CCSc1nc(N)c(C(=O)Nc2ccccc2C)cc1C(N)=O

>  <inhibition, %>
4.42

$$$$
>  <molecule>
CC1(C(=O)CSc2nc3ccccc3s2)CCC(=O)O1 (configuration not stated)

>  <inhibition, %>
-7.4

$$$$

Exercise: So what does the record say about inhibition for CCOC(=O)c1nnn(CC(=O)Nc2cccc(OC)c2)c1C(=O)OCC ?
Key: -4.53

Exercise: COc1cccc(NC(=O)CSc2nnc(-c3cc(-c4ccccn4)nc4ccccc34)o2)c1 ?
Key: -1.22

Exercise: N#CCCn1ccc(NC(=O)c2ccc(Cl)cc2)n1 ?
Key: -5.27

Exercise: CCOc1ccc(N(CC(=O)NC2CCCC2)S(=O)(=O)c2c(C)[nH]c(=O)[nH]c2=O)cc1 ?
Key: 0.4

Exercise: O=C(Nc1ccc(N2C(=O)C3C4C=CC(C4)C3C2=O)cc1)Nc1cccnc1 (configuration not stated) ?
Key: -3.29

----------
assay-protocol: reversal of MRP1-mediated doxorubicin resistance, pilot screen, H69AR cells, doxorubicin co-treatment (AID 601)
applied-conditions: H69AR cells, CellTiter-Glo, 72 h; compound alone cytotoxicity; at 10 µM
endpoint-name: viability (%)
The answer is to be given in %; state only the numeric part.

>  <molecule>
Cc1ccc(S(=O)(=O)N(CC(=O)N2CCC(C(N)=O)CC2)c2cccc(C(F)(F)F)c2)cc1

>  <viability (%)>
82.9

$$$$

Exercise: So what does the record say about viability for Cn1c(=O)c2c(-c3ccccc3)n(CCCN3CCOCC3)cc2n(C)c1=O ?
Key: 82.2

Exercise: COc1ccccc1NC(=O)C1=C(C)Nc2ncnn2C1c1ccc(C)o1 (stereo not given) ?
Key: 99.3

Exercise: COc1ccc(Cn2nnnc2C(c2cccs2)N2CCOCC2)cc1 (stereo not given) ?
Key: 109

Exercise: CCOc1cc(C2c3c(n[nH]c3C)C(=O)N2c2ccc(Br)cc2)ccc1O (stereo not given) ?
Key: 72.9
